Consider the following molecules; for each one, report its pKi.
# TARGET_OF_ASSAY: Prostaglandin D2 receptor 2 (Homo sapiens)
# Sequence (Q9Y5Y4 whole entry): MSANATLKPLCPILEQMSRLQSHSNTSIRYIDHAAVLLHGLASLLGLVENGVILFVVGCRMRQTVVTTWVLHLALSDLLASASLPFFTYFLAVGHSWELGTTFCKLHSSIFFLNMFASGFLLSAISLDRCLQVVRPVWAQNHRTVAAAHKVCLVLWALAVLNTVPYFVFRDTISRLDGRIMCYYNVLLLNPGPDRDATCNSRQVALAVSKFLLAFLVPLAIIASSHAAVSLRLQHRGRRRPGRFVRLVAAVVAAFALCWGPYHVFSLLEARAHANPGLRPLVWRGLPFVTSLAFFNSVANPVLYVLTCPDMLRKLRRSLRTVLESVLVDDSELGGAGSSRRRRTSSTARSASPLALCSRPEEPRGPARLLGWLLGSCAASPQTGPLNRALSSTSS
# METHOD: Radioligand Binding Assay: Radioligand binding was performed using filtration or scintillation proximity assay (SPA) technology. SPA assays were done at room temperature in 10 mM HEPES pH 7.4, 1 mM EDTA containing 2 mM MnCl2 and 16 nM [3H]-PGD2 (PerkinElmer, Waltham, Mass.) (164 Ci mmol-1), in a final volume of 0.05 mL. Competing ligands were diluted in dimethylsulfoxide and added using very low volumes (500 nL). The reaction was initiated by the addition of a mixture of 3.52 ug of membrane protein prepared from a human embryonic kidney (HEK)-hCRTH2 cell line adhered to 140 ug of wheatgerm agglutinin SPA beads (PerkinElmer). Total and non-specific binding were determined in the absence and the presence of a CRTH2 antagonist, respectively. The reaction was routinely conducted for 60 minutes at room temperature followed by centrifugation for 5 minutes at 1000 RPM. The radioactivity was measured with a TopCountNXT (PerkinElmer). Filtration binding assays were done in a similar way with minor differences. The assay volume was 0.20 mL and competing ligands in dimethylsulfoxide were added in 2 uL. [3H]-PGD2 was used at 0.6 nM, and reactions were initiated by the addition of 10 ug of membrane protein. Reactions were terminated by filtration through GF/C filter plates (PerkinElmer) presoaked in 10 mM HEPES. After washing with buffer, plates were dried in a 50° C. oven for 1 h, scintillation cocktail was added and radioactivity was measured. Results determined using the SPA-based assay were similar to those from the filtration binding assay.
Note on units: pKi is unitless, being -log10 of a concentration expressed in mol/L.

GET /values?readout=pKi&system=Prostaglandin D2 receptor 2 (Homo sapiens)&item= O=C(O)CCCCc1cc2cc(-c3noc(C4Cc5ccccc5C4)n3)ccc2c(=O)n1-c1ccc(F)cc1 7.67

GET /values?readout=pKi&system=Prostaglandin D2 receptor 2 (Homo sapiens)&item= O=C(O)CCCCc1cc2cc(-c3noc(Cc4ccc(F)cc4)n3)ccc2c(=O)n1-c1ccc(F)cc1 8.11

GET /values?readout=pKi&system=Prostaglandin D2 receptor 2 (Homo sapiens)&item= O=C(CCCCc1cc2cc(C(=O)N[C@@H]3CCCc4cc(F)ccc43)ccc2c(=O)n1-c1ccc(F)cc1)NS(=O)(=O)C1CC1 7.96

GET /values?readout=pKi&system=Prostaglandin D2 receptor 2 (Homo sapiens)&item= CC1(c2nc3ccc(F)cc3o2)CC(c2ccc3c(=O)n(-c4ccc(F)cc4)c(CCCCC(=O)O)cc3c2)=NO1 (stereo not given) 7.59

GET /values?readout=pKi&system=Prostaglandin D2 receptor 2 (Homo sapiens)&item= CC1(c2nc3ccc(F)cc3o2)CC(c2ccc3c(=O)n(-c4ccc(F)cc4)c(CCCCC(=O)O)c(Cl)c3c2)=NO1 (stereo not given) 7.10

Data origin: ChEMBL document CHEMBL3886569
